# Tested on: CD2F1 mice, L1210 leukemia ip, survival T/C
# experimentDescription: NCI In Vivo Anticancer Drug Screen. Data for tumor model L1210 Leukemia (intraperitoneal) in CD2F1 (CDF1) mice
# cond: endpoint: mean survival time; dose: 12.5 mg/kg/injection; schedule: Q04DX003 (ip); vehicle: saline with Tween-80; higher = longer survival
Inconclusive results and toxic doses are left out.
Reported T/C values follow for various molecules
propertyName: T/C

>>> df
                       smilesrepresentation          measured
0  C[CH2][Sn]([c]1ccccc1)([c]1ccccc1)[c]1ccccc1   97 % of control
1  O=C(C=C(C(F)(F)F)C(F)(F)F)c1cccc([N+](=O)[O-])c1  103 % of control
2   O=C1/C(=C(/c2ccccc2)N2CCOCC2)Cc2ccccc21   91 % of control

Every entry's value here was drawn from PubChem BioAssay AID256.
